Item-by-item account of Stability
# Test system: Candida albicans
# TEST DESCRIPTION: Prodrug stability in fluconazole sensitive Candida albicans isolate Gu4 assessed as compound cleavage rate measured per mg of protein
# Assay type: ADME, organism-based
# SETUP CONDITIONS: in vivo
Non-standard residues stand in square brackets, D forms with d. Residues, ends and D or L forms follow the SMILES beside them. Phe(3-F) = N[C@@H](Cc1cccc(F)c1)C(=O)O

| COMPOUND | U | Stability |
| --- | --- | --- |
| CCC[C@H](NC(=O)[C@@H](N)CCCCN)C(=O)N[C@@H](CNC(=O)/C=C/C(=O)OC)C(=O)O | nmol/min | 20 |
| CCC[C@H](N)C(=O)N[C@@H](CNC(=O)/C=C/C(=O)OC)C(=O)O | nmol/min | 20 |
| CSCC[C@H](NC(=O)[C@@H](N)CCSC)C(=O)N[C@@H](Cc1cccc(F)c1)C(=O)O (H-Met-Met-[Phe(3-F)]-OH) | nmol/min | 20 |
| CC(C)C[C@H](N)C(=O)N[C@@H](Cc1cccc(F)c1)C(=O)O (H-Leu-[Phe(3-F)]-OH) | nmol/min | 20 |
| CC(C)C[C@H](NC(=O)[C@@H](N)COCCN)C(=O)NCC(=O)O | nmol/min | 20 |

----------
# Test system: Saccharomyces cerevisiae
# TEST DESCRIPTION: Drug uptake in Saccharomyces cerevisiae ADCDR2 expressing Candida albicans CDR2 efflux pump at 200 uM pretreated for 10 mins measured after 60 mins by fluorescamine staining
# Type: ADME, organism-based
# SETUP CONDITIONS: in vivo, 1 h
Non-standard residues stand in square brackets, D forms with d. Residues, ends and D or L forms follow the SMILES beside them. *: point of attachment. Phe(3-F) = N[C@@H](Cc1cccc(F)c1)C(=O)O; Ethyl(2-NH2) = NCC*
Classify by measured Drug uptake: yes (1) if it is equal to or exceeds 2 nmol/min/mg, no (0) if it is smaller.

| MOLECULE | ASSIGNED LABEL |
| --- | --- |
| CSCC[C@H](NC(=O)[C@@H](N)CCSC)C(=O)N[C@@H](Cc1cccc(F)c1)C(=O)O (H-Met-Met-[Phe(3-F)]-OH) | no (0) |
| NC(CC(=O)NO)C(=O)O (stereo unspecified) | no (0) |
| C[C@H](N)C(=O)N[C@@H](C)C(=O)O (H-Ala-Ala-OH) | yes (1) |
| C[C@@H]([C@H](N)C(=O)N[C@H](C(=O)O)[C@H]1O[C@@H](n2ccc(=O)[nH]c2=O)[C@H](O)[C@@H]1O)[C@H](O)c1ccc(O)cn1 [NIKKOMYCIN] | no (0) |
| CCC[C@H](N)C(=O)N[C@@H](CNC(=O)/C=C/C(=O)OC)C(=O)O | no (0) |
| CC(C)C[C@H](N)C(=O)N[C@@H](Cc1cccc(F)c1)C(=O)O (H-Leu-[Phe(3-F)]-OH) | yes (1) |
| [N-]=[N+]=CC(=O)OC[C@H](N)C(=O)O [AZASERINE] | no (0) |
| [N-]=[N+]=CC(=O)CC[C@H](N)C(=O)O [6-DIAZO-5-OXO-L-NORLEUCINE] | yes (1) |
| CC(C)C[C@H](NC(=O)[C@H](CC(C)C)NC(=O)[C@H](CC(C)C)NC(=O)[C@@H](N)COCCN)C(=O)NCC(=O)O (H-S(Ethyl(2-NH2))LLLG-OH) | no (0) |
| CC(C)C[C@H](NC(=O)[C@H](CC(C)C)NC(=O)[C@@H](N)COCCN)C(=O)NCC(=O)O (H-S(Ethyl(2-NH2))LLG-OH) | no (0) |
| C[C@H](N)C(=O)N[C@@H](C)C(=O)N[C@@H](C)C(=O)O | yes (1) |
| CC(C)C[C@H](NC(=O)[C@@H](N)COCCN)C(=O)NCC(=O)O | no (0) |
| C[C@H](N)C(=O)O [ALANINE] | yes (1) |
| N[C@H]1CCC[C@H]1C(=O)O | no (0) |
| CCC[C@H](NC(=O)[C@@H](N)CCCCN)C(=O)N[C@@H](CNC(=O)/C=C/C(=O)OC)C(=O)O | no (0) |
| NC(Cc1cccc(F)c1)C(=O)O (stereo unspecified) [M-FLUOROPHENYLALANINE] | no (0) |

----------
Item-by-item account of Drug uptake
# Tested on: Saccharomyces cerevisiae
# TEST DESCRIPTION: Drug uptake in Saccharomyces cerevisiae AD12345678 at 200 uM pretreated for 10 mins measured after 60 mins by fluorescamine staining
# Format: ADME, organism-based
# SETUP CONDITIONS: in vivo, 1 h
Non-standard residues stand in square brackets, D forms with d. Residues, ends and D or L forms follow the SMILES beside them. Phe(3-F) = N[C@@H](Cc1cccc(F)c1)C(=O)O

| COMPOUND | U | Drug uptake |
| --- | --- | --- |
| [N-]=[N+]=CC(=O)OC[C@H](N)C(=O)O | nmol/min/mg | 1.75 |
| C[C@H](N)C(=O)O | nmol/min/mg | 3.51 |
| CC(C)C[C@H](N)C(=O)N[C@@H](Cc1cccc(F)c1)C(=O)O (H-Leu-[Phe(3-F)]-OH) | nmol/min/mg | 0.79 |
| NC(CC(=O)NO)C(=O)O (stereo not given) | nmol/min/mg | 1.54 |
| CSCC[C@H](NC(=O)[C@@H](N)CCSC)C(=O)N[C@@H](Cc1cccc(F)c1)C(=O)O (H-Met-Met-[Phe(3-F)]-OH) | nmol/min/mg | 0.64 |

----------
# Tested on: Candida albicans
# TEST DESCRIPTION: Prodrug stability in fluconazole sensitive Candida albicans isolate B3 assessed as compound cleavage rate measured per mg of protein
# Type: ADME, organism-based
# SETUP CONDITIONS: in vivo
Non-standard residues stand in square brackets, D forms with d. Residues, ends and D or L forms follow the SMILES beside them. *: point of attachment. Phe(3-F) = N[C@@H](Cc1cccc(F)c1)C(=O)O; Ethyl(2-NH2) = NCC*
ENDPOINT: Stability (nmol/min)

| COMPOUND | ENDPOINT | U | VAL |
| --- | --- | --- | --- |
| CC(C)C[C@H](NC(=O)[C@@H](N)COCCN)C(=O)NCC(=O)O | Stability | nmol/min | 20 |
| CC(C)C[C@H](NC(=O)[C@H](CC(C)C)NC(=O)[C@H](CC(C)C)NC(=O)[C@@H](N)COCCN)C(=O)NCC(=O)O (H-S(Ethyl(2-NH2))LLLG-OH) | Stability | nmol/min | 20 |
| CSCC[C@H](NC(=O)[C@@H](N)CCSC)C(=O)N[C@@H](Cc1cccc(F)c1)C(=O)O (H-Met-Met-[Phe(3-F)]-OH) | Stability | nmol/min | 20 |
| C[C@@H]([C@H](N)C(=O)N[C@H](C(=O)O)[C@H]1O[C@@H](n2ccc(=O)[nH]c2=O)[C@H](O)[C@@H]1O)[C@H](O)c1ccc(O)cn1 [NIKKOMYCIN] | Stability | nmol/min | 0.3 |

----------
# System: Saccharomyces cerevisiae
# TEST DESCRIPTION: Drug uptake in Saccharomyces cerevisiae ADCDR1 expressing Candida albicans CDR1 efflux pump at 200 uM pretreated for 10 mins measured after 60 mins by fluorescamine staining
# Assay type: ADME, organism-based
# SETUP CONDITIONS: in vivo, 1 h
Non-standard residues stand in square brackets, D forms with d. Residues, ends and D or L forms follow the SMILES beside them. *: point of attachment. Phe(3-F) = N[C@@H](Cc1cccc(F)c1)C(=O)O; Ethyl(2-NH2) = NCC*
Item-by-item account of Drug uptake

| COMPOUND | ASSAYED SYSTEM | Drug uptake |
| --- | --- | --- |
| CC(C)C[C@H](NC(=O)[C@@H](N)COCCN)C(=O)NCC(=O)O | Saccharomyces cerevisiae | 1.42 nmol/min/mg |
| N[C@H]1CCC[C@H]1C(=O)O | Saccharomyces cerevisiae | 2.11 nmol/min/mg |
| C[C@H](N)C(=O)N[C@@H](C)C(=O)O (H-Ala-Ala-OH) | Saccharomyces cerevisiae | 4.46 nmol/min/mg |
| NC(CC(=O)NO)C(=O)O (stereo unspecified) | Saccharomyces cerevisiae | 2.25 nmol/min/mg |
| [N-]=[N+]=CC(=O)OC[C@H](N)C(=O)O | Saccharomyces cerevisiae | 2.15 nmol/min/mg |
| CC(C)C[C@H](NC(=O)[C@H](CC(C)C)NC(=O)[C@H](CC(C)C)NC(=O)[C@@H](N)COCCN)C(=O)NCC(=O)O (H-S(Ethyl(2-NH2))LLLG-OH) | Saccharomyces cerevisiae | 0.49 nmol/min/mg |
| C[C@@H]([C@H](N)C(=O)N[C@H](C(=O)O)[C@H]1O[C@@H](n2ccc(=O)[nH]c2=O)[C@H](O)[C@@H]1O)[C@H](O)c1ccc(O)cn1 | Saccharomyces cerevisiae | 1.08 nmol/min/mg |
| CCC[C@H](NC(=O)[C@@H](N)CCCCN)C(=O)N[C@@H](CNC(=O)/C=C/C(=O)OC)C(=O)O | Saccharomyces cerevisiae | 1.61 nmol/min/mg |
| CCC[C@H](N)C(=O)N[C@@H](CNC(=O)/C=C/C(=O)OC)C(=O)O | Saccharomyces cerevisiae | 1.86 nmol/min/mg |
| NC(Cc1cccc(F)c1)C(=O)O (stereo unspecified) | Saccharomyces cerevisiae | 2.57 nmol/min/mg |
| C[C@H](N)C(=O)N[C@@H](C)C(=O)N[C@@H](C)C(=O)O | Saccharomyces cerevisiae | 5.3 nmol/min/mg |
| CSCC[C@H](NC(=O)[C@@H](N)CCSC)C(=O)N[C@@H](Cc1cccc(F)c1)C(=O)O (H-Met-Met-[Phe(3-F)]-OH) | Saccharomyces cerevisiae | 1.11 nmol/min/mg |
| CC(C)C[C@H](N)C(=O)N[C@@H](Cc1cccc(F)c1)C(=O)O (H-Leu-[Phe(3-F)]-OH) | Saccharomyces cerevisiae | 1.95 nmol/min/mg |
| [N-]=[N+]=CC(=O)CC[C@H](N)C(=O)O | Saccharomyces cerevisiae | 2.32 nmol/min/mg |
| C[C@H](N)C(=O)O | Saccharomyces cerevisiae | 4.16 nmol/min/mg |
| CC(C)C[C@H](NC(=O)[C@H](CC(C)C)NC(=O)[C@@H](N)COCCN)C(=O)NCC(=O)O (H-S(Ethyl(2-NH2))LLG-OH) | Saccharomyces cerevisiae | 0.83 nmol/min/mg |
